Target: SARS-CoV-2 full length spike protein, wild type, expressed on the surface of transiently transfected CHO cells (SARS-CoV-2, UniProt P0DTC2 14-1273)
QUANTITY KIND: median fluorescence fold over isotype control (fold over isotype)
Kindly provide the numeric value in fold over isotype only, without the unit symbol.

Exam item: Supply median fluorescence fold over isotype control value. Item: antibody 431 (antibody, V domains shown) VH: QVQLVESGGGVVQPGRSLRLSCAASGFTFSSYAMHWVRQAPGKGLEWLAVISYDGSNKYYADSVKGRFTISRDNSKNTLYLQMNSLRAEDTAVYYCARSFRGGYYYGMDVWGQGTTVTVSS VL: DIQLTQSPSFLSASVGDRVTITCRASQGISSYLAWYQQKPGKAPKLLIYAASTLQSGVPSRFSGSGSGTEFTLTISSLQPEDFATYYCQQLNSYPLFTFGPGTKVDIK
Marked response: 10.7

Exam item: Give a short answer stating reported median fluorescence fold over isotype control for antibody 409 (antibody, V domains shown) VH: QVTLRESGPALVKPTQTLTLTCTFSGFSLSTSGMCVSWIRQPPGKALEWLALIDWDDDKYYSTSLKTRLTISKDTSKNQVVLTMTNMDPVDTATYYCARTTYYYVSGRRAEFDPWGQGTLVTVSS VL: NFMLTQPHSVSESPGKTVTISCTGSSGSIASNYVQWYQQRPGSAPTTVIYEDNQRPSGVPDRFSGSIDSSSNSASLTISGLKTEDEADYYCQSYDSSNQGVFGGGTKLTVL .
Marked response: 13.8
